Attribute: Km
# Substrate: p-NP-C4
# APPLIED_CONDITIONS: pH 7; 25 °C
Numeric answer only, unit µM assumed.

[
  {
    "PROTEIN": "unnamed (protein) MRSSLVLFFVSAWTALASPIRREVSQDLFNQFNLFAQYSAAAYCGKNNDAPAGTNITCTGNACPEVEKADATFLYSFEDSGVGDVTGFLALDNTNKLIVLSFRGSRSIENWIGNLNFDLKEINDICSGCRGHDGFTSSWRSVADTLRQKVEDAVREHPDYRVVFTGHSLGGALATVAGADLRGNGYDIDVFSYGAPRVGNRAFAEFLTVQTGGTLYRITHTNDIVPRLPPREFGYSHSSPEYWIKSGTLVPVTRNDIVKIEGIDATGGNNQPNIPDIPAHLWYFGLIGTCL",
    "REPORTED_MEASUREMENT": 2500
  }
]

Now for another entry.
Challenge: Report Km, nothing else, for this protein: unnamed (protein) MTEPTVARPDIDPVLKMLLDTFPVTFTAADGVEVARARLRQLKTPPELLPELRIEERTVGYDGLTDIPVRVYWPPVVRDNLPVVVYYHGGGWSLGGLDTHDPVARAHAVGAQAIVVSVDYRLAPEHPYPAGIDDSWAALRWVGENAAELGGDPSRIAVAGDSAGGNISAVMAQLARDVGGPPLVFQLLWYPTTMADLSLPSFTENADAPILDRDVIDAFLAWYVPGLDISDHTMLPTTLAPGNADLSGLPPAFIGTAEHDPLRDDGACYAELLTAAGVSVELSNEPTMVHGYVNFALVVPAAAEATGRGLAALKRALHA
Response given: 50
